experimentSummary: In vivo pharmacokinetic profile in rat after IV injection (ELISA)
conditionNotes: male, Sprague Dawley, in vivo; rat, intravenous; SST 0.02 mg/kg, SST fusion protein 27.1 mg/kg; read-out: AUC0-inf, Mean (converted)
propertyName: AUC(0-inf) (ng·h/mL)
Write it as a number; the unit ng·h/mL goes unstated.

Query: // query AUC(0-inf) value for entry C[C@H](N)C(=O)NCC(=O)N[C@H]1CSSC[C@@H](C(=O)O)NC(=O)[C@H](CO)NC(=O)[C@H]([C@@H](C)O)NC(=O)[C@H](Cc2ccccc2)NC(=O)[C@H]([C@@H](C)O)NC(=O)[C@H](CCCCN)NC(=O)[C@H](Cc2c[nH]c3ccccc23)NC(=O)[C@H](Cc2ccccc2)NC(=O)[C@H](Cc2ccccc2)NC(=O)[C@H](CC(N)=O)NC(=O)[C@H](CCCCN)NC1=O [Free SST]
Result: 0.73

----------
experimentSummary: In vivo pharmacokinetic profile in rat after IV injection (ELISA)
conditionNotes: male, Sprague Dawley, in vivo; rat, IV 0.02 mg/kg, sampling time 8 min; read-out: Plasma SST concentration, Mean
Protocol: The rat was restrained manually at the designated time points, approximately 300 μL of blood sample was collected via jugular vein into EDTA-K2 tubes and subsequently centrifuged at 4° C. and 1500 g for 10 min to obtain plasma samples. Standard curve was prepared by the following procedure. Duplicate standard points were prepared by serially diluting Free SST Stock (1 mg/mL) with diluent buffer to produce 5, 2.5, 1.25, 0.625, 0.313, 0.156, 0.078 and 0.039 ng/mL solutions. […]
propertyName: level at 8 min
Answer format: value, then unit.

Query: // query level at 8 min value for entry C[C@H](N)C(=O)NCC(=O)N[C@H]1CSSC[C@@H](C(=O)O)NC(=O)[C@H](CO)NC(=O)[C@H]([C@@H](C)O)NC(=O)[C@H](Cc2ccccc2)NC(=O)[C@H]([C@@H](C)O)NC(=O)[C@H](CCCCN)NC(=O)[C@H](Cc2c[nH]c3ccccc23)NC(=O)[C@H](Cc2ccccc2)NC(=O)[C@H](Cc2ccccc2)NC(=O)[C@H](CC(N)=O)NC(=O)[C@H](CCCCN)NC1=O [Free SST]
Result: 2.95 ng/mL

----------
experimentSummary: In vivo pharmacokinetic profile in rat after IV injection (ELISA)
conditionNotes: male, Sprague Dawley, in vivo; rat, IV 0.02 mg/kg, sampling time 4 min; read-out: Plasma SST concentration, Mean
propertyName: level at 4 min (ng/mL)
Write it as a number; the unit ng/mL goes unstated.

Query: // query level at 4 min value for entry C[C@H](N)C(=O)NCC(=O)N[C@H]1CSSC[C@@H](C(=O)O)NC(=O)[C@H](CO)NC(=O)[C@H]([C@@H](C)O)NC(=O)[C@H](Cc2ccccc2)NC(=O)[C@H]([C@@H](C)O)NC(=O)[C@H](CCCCN)NC(=O)[C@H](Cc2c[nH]c3ccccc23)NC(=O)[C@H](Cc2ccccc2)NC(=O)[C@H](Cc2ccccc2)NC(=O)[C@H](CC(N)=O)NC(=O)[C@H](CCCCN)NC1=O [Free SST]
Result: 4.3

----------
experimentSummary: In vivo pharmacokinetic profile in rat after IV injection (ELISA)
conditionNotes: male, Sprague Dawley, in vivo; rat, IV 0.02 mg/kg, sampling time 2 min; read-out: Plasma SST concentration, Mean
Description: The rat was restrained manually at the designated time points, approximately 300 μL of blood sample was collected via jugular vein into EDTA-K2 tubes and subsequently centrifuged at 4° C. and 1500 g for 10 min to obtain plasma samples. Standard curve was prepared by the following procedure. Duplicate standard points were prepared by serially diluting Free SST Stock (1 mg/mL) with diluent buffer to produce 5, 2.5, 1.25, 0.625, 0.313, 0.156, 0.078 and 0.039 ng/mL solutions. […]
propertyName: level at 2 min (ng/mL)
Write it as a number; the unit ng/mL goes unstated.

Query: // query level at 2 min value for entry C[C@H](N)C(=O)NCC(=O)N[C@H]1CSSC[C@@H](C(=O)O)NC(=O)[C@H](CO)NC(=O)[C@H]([C@@H](C)O)NC(=O)[C@H](Cc2ccccc2)NC(=O)[C@H]([C@@H](C)O)NC(=O)[C@H](CCCCN)NC(=O)[C@H](Cc2c[nH]c3ccccc23)NC(=O)[C@H](Cc2ccccc2)NC(=O)[C@H](Cc2ccccc2)NC(=O)[C@H](CC(N)=O)NC(=O)[C@H](CCCCN)NC1=O [Free SST]
Result: 4.95

Just for reference, patent US20170002057A1 is where these values come from.
